- measured.on: C-terminal-binding protein 1 (Homo sapiens)
- method.summary: qHTS for Inhibitors of the Phosphatase Activity of Eya2: Carboxyl-terminal binding protein (CtBP) Counterscreen for Cherry-picked Compounds; also: nearly all actives have a fitted effect of over 65% in size
- particulars: purified protein-protein binding, AlphaScreen, 3 h; series mostly up to 46.1 µM
Among all 1,300 compounds or so, about 420 (32%) were called active. Roughly 32% stayed inconclusive and do not appear here. Calls follow the shape of the dose curve; as a rule, active = well fitted inhibition curve with a large enough effect; inconclusive = small, poorly fitted or top-dose-only effect; inactive = no such curve, though single readings can be large or run the other way. The list shows a part of the results.
Just give me one of these, please: yes = active, no = inactive

// known answers, use as guide
INSERT INTO measurements (compound, measured_on, category) VALUES
  ('CCCCn1nc(C(=O)Nc2ccc3c(c2)OCO3)c2ccccc2c1=O', 'C-terminal-binding protein 1 (Homo sapiens)', 'yes'),
  ('CC1(C)CC(=O)C(C2C3=C(CC(C)(C)CC3=O)Oc3c(Br)cc(Br)cc32)=C(O)C1 (stereo not given)', 'C-terminal-binding protein 1 (Homo sapiens)', 'yes');

Kindly provide the recorded test outcome for the following compound: Cn1nnnc1SCC(=O)Nc1ccc2c(c1)OCO2 no

Kindly provide the recorded test outcome for the following compound: O=C(CCn1c(=O)oc2ccccc21)NCc1ccc2c(c1)OCO2 no

Kindly provide the recorded test outcome for the following compound: Oc1[nH]c2ccccc2c1N=Nc1nc2ccccc2s1 no

----------
- measured.on: C-terminal-binding protein 1 (Homo sapiens) (UniProt Q13363)
- method.summary: qHTS for Inhibitors of the Phosphatase Activity of Eya2: Carboxyl-terminal binding protein (CtBP) Counterscreen for Cherry-picked Compounds; also: nearly all actives have a fitted effect of over 65% in size
- particulars: purified protein-protein binding, AlphaScreen, 3 h; series mostly up to 46.1 µM
- From the text: The Eya protein family is an essential co-activator of the Six1 transcription factor. Six1 is a developmental gene that is abnormally re-expressed in a large percentage of breast cancers. This over-expression plays a causal role in the initiation and metastatic development of breast cancers. […] A 1536 well format, fluorescence based qHTS assay was developed and used to target the phosphatase activity of Eya2 (AID 488837). […]
Among all 1,300 compounds or so, about 420 (32%) were called active. Another 32% or so got no clear call; they are omitted. The call rests on the fitted dose curve; in most records, active means well fitted inhibition curve with a large enough effect; inconclusive means small, poorly fitted or top-dose-only effect; inactive means no such curve, though single readings can be large or run the other way. The list shows a part of the results.
Just give me one of these, please: active, inactive

// known answers, use as guide
INSERT INTO measurements (compound, category) VALUES
  ('O=C(COC(=O)c1cc(=O)[nH]c2ccccc12)Nc1cccc(S(=O)(=O)N2CCOCC2)c1', 'inactive'),
  ('NC(=O)C1CCN(CC(=O)Nc2ccc3c(c2)OCO3)CC1', 'inactive'),
  ('O=C(COC(=O)c1cc(S(=O)(=O)N2CCOCC2)ccc1O)Nc1ccc2c(c1)OCO2', 'inactive');

Next item in the queue.
Kindly provide the recorded test outcome for the following compound: CCCc1nc(N2CCN(C)CC2)c2sc(=S)n(-c3ccccc3)c2n1 inactive

----------
- measured.on: C-terminal-binding protein 1 (Homo sapiens)
- method.summary: qHTS for Inhibitors of the Phosphatase Activity of Eya2: Carboxyl-terminal binding protein (CtBP) Counterscreen for Cherry-picked Compounds; also: nearly all actives have a fitted effect of over 65% in size
- particulars: purified protein-protein binding, AlphaScreen, 3 h; series mostly up to 46.1 µM
Out of some 1,300 compounds screened, about 420 (32%) were called active. Not shown: some 32% with an inconclusive outcome. Calls follow the shape of the dose curve; as a rule, active = well fitted inhibition curve with a large enough effect; inconclusive = small, poorly fitted or top-dose-only effect; inactive = no such curve, though single readings can be large or run the other way. This is one part of the list.
Just give me one of these, please: 1 for active, 0 for inactive

// known answers, use as guide
INSERT INTO assay_data (molecule, measured_on, category) VALUES
  ('O=C(O)c1ccc(Nc2nc(-c3ccccc3)nc3ccccc23)cc1', 'C-terminal-binding protein 1 (Homo sapiens)', 1),
  ('Cc1cc(C)cc(COc2ccc3c(C)c(CC(=O)O)c(=O)oc3c2C)c1', 'C-terminal-binding protein 1 (Homo sapiens)', 0),
  ('O=C(CSc1ccc2nnc(-c3ccccn3)n2n1)Nc1ccccc1', 'C-terminal-binding protein 1 (Homo sapiens)', 1);

Kindly provide the recorded test outcome for the following molecule: Cc1c(CCC(=O)O)c(=O)oc2c(C)c(OCc3cc4c(cc3Cl)OCO4)ccc12 1

Kindly provide the recorded test outcome for the following molecule: CC1C=CCC2C(=O)N(c3ccc(OC(=O)c4cccs4)cc3)C(=O)C12 (stereo not given) 0

Kindly provide the recorded test outcome for the following molecule: C=CCn1c(C)cc(C(=O)COc2ccc(N(C)S(=O)(=O)c3ccc(NC(C)=O)cc3)cc2)c1C 0

Kindly provide the recorded test outcome for the following molecule: COc1ccc(C2c3[nH]c4ccccc4c3C[C@H]3C(=O)N(C4CCN(Cc5ccccc5)CC4)CC(=O)N23)cc1OC (stereo not given in full) 0

Kindly provide the recorded test outcome for the following molecule: CCc1c(C)nc(Nc2nc(C)c3ccc(OC)cc3n2)[nH]c1=O 1

Kindly provide the recorded test outcome for the following molecule: CCN(CC)c1ccc(NC(=O)c2ccc3c(c2)c(C)c(C)n3C)cc1 1

Kindly provide the recorded test outcome for the following molecule: CCn1cc(C(=O)N[C@@H](C)C(=O)NCCCn2ccnc2)c(=O)c2cc3c(cc21)OCO3 0

Kindly provide the recorded test outcome for the following molecule: CCOc1ccc(NC(=O)COc2ccc3c(c2)CCC3)cc1OC 0

Kindly provide the recorded test outcome for the following molecule: OC(COc1ccc2cc(Br)ccc2c1)Cn1ccnc1 (stereo not given) 0

Kindly provide the recorded test outcome for the following molecule: COC(=O)C(Sc1ccc(Cl)cc1)C1SC(=S)N(Cc2ccccc2)C1=O (stereo not given) 0

Kindly provide the recorded test outcome for the following molecule: CC1(C)CC2CC(C)(CN2/C=N/c2sc3c(c2C#N)CC(C)(C)NC3(C)C)C1 (stereo not given) 0

Kindly provide the recorded test outcome for the following molecule: COc1cc2c(cc1OC)C(c1ccc([N+](=O)[O-])cc1)NCC2 (stereo not given) 0

Kindly provide the recorded test outcome for the following molecule: CCOc1ccc(S(=O)(=O)NCc2ccc(C)cc2)c2cccnc12 0

Kindly provide the recorded test outcome for the following molecule: CN(C)c1ccc(C(=C2C=CC(=[N+](C)C)C=C2)c2c(O)c(S(=O)(=O)[O-])cc3cc(S(=O)(=O)O)ccc23)cc1 1

Kindly provide the recorded test outcome for the following molecule: NC(=O)C1CCN(c2oc(-c3cccs3)nc2S(=O)(=O)c2ccc(Br)cc2)CC1 0

Kindly provide the recorded test outcome for the following molecule: CN(C)c1ccc(C=C2c3ccccc3-c3ccccc32)cc1 1

Kindly provide the recorded test outcome for the following molecule: CCOC(=O)NNc1nncc2ccccc12 0

Kindly provide the recorded test outcome for the following molecule: COc1ccc2c(c1)c1nnc(SC(C)C)nc1n2C 1

Kindly provide the recorded test outcome for the following molecule: CCNc1ccc2noc3c2c1C(=O)c1ccccc1-3 1

Kindly provide the recorded test outcome for the following molecule: O=c1nc(-c2ccccc2)c2cc(Cl)ccc2[nH]1 1
